# Test system: SF-539
# experiment.summary: NCI tumour cell line growth inhibition, 48 h
Calls of active or inactive are those of the source. No stated cut-off is given here; in the data, active = GI50 up to about 1.1 µM and inactive = higher.
The reader will find reported GI50 values listed item by item below.
quantity.name: GI50

| molecule | quantity.name | reading |
| --- | --- | --- |
| CN(C)CC1CCCCCC(Br)C1=O (stereo unspecified) | GI50 | 17.3 µM (inactive) |
| Cc1ccc(S(=O)(=O)C2=Cc3ccccc3C2(O)c2ccccc2)cc1 (stereo unspecified) | GI50 | 24 µM (inactive) |
| CN(C)CCn1c(=O)c2ccc3c4c(nn3CCN(C)C)c3cc(N)ccc3n(c1=O)c24 | GI50 | 0.0291 µM (active) |
| CC(=O)C1(C)CC(C#N)(C#N)C(C#N)=C1N (stereo unspecified) | GI50 | > 100 µM (inactive) |
| COc1ncnc2c(NC3OC(CO)C(O)C3O)ncnc12 (stereo unspecified) | GI50 | 0.246 µM (active) |
| CN(C)CCCn1cnc2ncccc2c1=O | GI50 | > 100 µM (inactive) |

====

# Test system: HCT-116
# experiment.summary: NCI tumour cell line growth inhibition, 48 h
Active and inactive are the calls of the source. No stated cut-off is given here; in the data, active = GI50 up to about 1.1 µM and inactive = higher. Peptide text beside a SMILES is read from it. * marks the point of attachment. Trt = c1ccc(C(c2ccccc2)(c2ccccc2)*)cc1; Cbz = O=C(OCc1ccccc1)*
Outcome codes: active, inactive

| compound | category.label |
| --- | --- |
| O=C(N/N=C\c1cccc(O)c1)c1ccncc1 | inactive |
| COCn1c(C)c(C)c2c(=O)oc(C)nc21 | inactive |
| CCOC(=O)NC1CC2CCC1(OC)C=C2C (configuration not stated) | inactive |
| CC(=O)Nc1cc(Nc2cc(O)nc(O)n2)ccc1C | inactive |
| CC(=O)NC1=C(OS(=O)(=O)c2ccc(C)cc2)CN(C)C1=O | inactive |
| Brc1cc2c(cc1Br)CN(c1ccccc1)C2 | inactive |
| C[C@H]1CC[P+](C)(c2ccccc2)C1 (some centres not stated) | inactive |
| CC(=O)/C=C1/C(=O)C(CC(C)C)=C1CC(C)C | inactive |
| OC12COc3ccccc3C1Oc1ccccc1C2 (configuration not stated) | inactive |
| CC(C)Oc1c(O)c2c3c(oc(=O)n3C=CC2c2ccccc2)c1OC(C)C (configuration not stated) | inactive |
| COC(=O)C(CO)NC(=O)C(CSC(c1ccccc1)(c1ccccc1)c1ccccc1)NC(=O)OCc1ccccc1 (configuration not stated) (Cbz-Cys(Trt)-Ser-OMe; configuration not given here) | inactive |
| COc1ccc(N2C(=O)[C@@H]3[C@@H]4CC(C)CC[C@@H]4c4c([nH]c5ccccc45)[C@@H]3C2=O)cc1 (some centres not stated) | inactive |
| O=S1OC(c2ccccc2)(c2ccccc2)C(c2ccccc2)(c2ccccc2)O1 | inactive |
| CCOC(=O)N1C2C=C(C)C(C3C(C)C(=O)N31)N(C(=O)c1ccccc1)O2 (configuration not stated) | inactive |
| Clc1ccccc1/C=C/c1ccnc2ccccc12 | inactive |
| COc1cc2c(c(OC)c1OC)-c1ccc(SC)cc1C(=O)CC2 | active |
| CC1(C)CC2=C(Sc3ccccc3N2)C(=O)C1C(=O)C(=O)Nc1cccc([N+](=O)[O-])c1 (configuration not stated) | inactive |
| C=CCN1C(=O)CC(=O)N(NC2=NNC3(C(=O)N2)c2ccccc2-c2ccccc23)C1=S | inactive |
| Nc1ncnc2c1ccn2COC(CO)CO | inactive |
| Oc1ccc(-c2nc3ccc(Br)cc3s2)cc1 | inactive |
| CC1=CC(C)(C)N=C2SC(c3ccc(N)cc3)=NN12 | inactive |
| CC(C)(C)OC(=O)NCC(O)CNC(=O)OC(C)(C)C | inactive |
